assay: HepG2 liver cancer cell viability effects, profiling panel, resazurin fluorescence, 24 h, PK04 Diversity Set (AID 1172); details: higher = more signal; note: test concentration not given here
outcome-measure: z-score
Just the number, please, no unit attached.

The reported value for C=CCC(OC(C)=O)[C@@H]1[C@@H](N(Cc2cc3ccccc3o2)C(=O)c2ccc(C)cc2)c2cc(OCCCO)ccc2N1C(=O)c1ccc2ccccc2n1 (some centres not stated) in terms of z-score is 1.8

The compound listed as CC(C)[Si](OCC[C@H]1O[C@]2(C(=O)N(Cc3ccccc3)c3ccccc32)[C@@H](C)[C@@H]1[Si](C)(C)O)(C(C)C)C(C)C has a reported z-score of -0.563

So for COc1ccc([Si](C)(C)[C@H]2[C@H](CCO)O[C@@]3(C(=O)N(Cc4ccc(N5CCCCC5=O)cc4)c4ccccc43)[C@@H]2C)cc1 , the logged z-score turned out to be -1.69

Please fill in: z-score reported for CO[C@@H]1COC(=O)[C@H](C)NC(=O)CC=C[C@@H](C)[C@H](NS(=O)(=O)c2ccc(C)cc2)COC(=O)CC=C[C@@H]1C = 0.825

Data point: COc1ccc([Si](C)(C)[C@H]2[C@H](CCO)O[C@@]3(C(=O)N(Cc4ccccc4)c4ccc(N5C(=O)c6cccc7cccc5c67)cc43)[C@@H]2C)cc1 ; z-score = 0.175

# z-score (compound: C[C@]1(C(=O)NCc2ccccc2)c2ccccc2C(=O)N(Cc2cc(C(F)(F)F)cc(C(F)(F)F)c2)[C@H]1c1ccc(CO)cc1 ) is -0.331

So, Cc1ccc(S(=O)(=O)N[C@H]2COC(=O)CC=C[C@H](C)COC(=O)N[C@@H](C)C(=O)CC=C[C@@H]2C)cc1 ? Its z-score was 0.115

The recorded z-score for entry CC(C)N1CC=CC23O[C@@H]4/C=C\CCCOC(=O)C4[C@H]2C(=O)N(CCO)[C@@H]3C1=O (some centres not stated) equals 1.09

Measured z-score of COCCOC(=O)N1C(=O)[C@@]2(c3cc(C#CCNC(N)=O)ccc31)[C@H](c1ccc(OCCO)cc1)N1[C@H](c3ccccc3)[C@H](c3ccccc3)OC(=O)[C@H]1[C@@H]2C(=O)N1CCCCCCC1 : 0.377

// recorded z-score for O=[N+]([O-])c1ccc(C[n+]2ccc3ccc(O)cc3c2)o1 : -0.104

Field z-score (entry COc1ccc(C(O)C2C=CC3C(=O)N(C)C(=O)C3N2N2CCCCC2)cc1OCc1ccccc1 (configuration not stated) ) reads 1.06

The measured z-score associated with C[N+](C)(C)CCCCNC(=O)[C@@H]1C[C@@H]2C(=O)N3CCC[C@H]3C(=O)N2[C@@H]1c1cccc(OCCO)c1 reads 0.0931

====

test: basal HepG2 mitochondrial membrane potential changes, profiling panel, cell-based, JC-1 fluorescence, 24 h, 100 nL compound (AID 1167); details: higher = more signal; note: test concentration not given here
Field: z-score. Provide a value for each of the molecules that follow.
Please respond with just the number, no unit label.

The recorded z-score for COc1ccc(CCN2C(=O)[C@@]3(c4ccc([N+](=O)[O-])cc4)CC(=O)N(CC45CC6CC(CC(C6)C4)C5)[C@@H]3c3ccc(CO)cc32)cc1 is 0.0982

Entry under test: C=CC(=O)O[C@@H](Cc1ccccc1)[C@H]1C2C=CCCC=C2CN1Cc1cccc(Cl)c1 (stereo partly drawn) . Its z-score was 0.687

Quick note, z-score for CCC(=O)[C@]12O[C@@]3([C@@H]4C(=O)OCC[C@@H]41)N(CC)C(C)=C(C(=O)OC)[C@@H](c1ccccc1)N3C2=O landed at 0.684
